Reference source for all entries: patent US7803792B2

The following compounds are shown together with reported IC50 values.
Molecular target: human IBAT (Homo sapiens, UniProt Q12908)
Test: In vitro assay of temporarily expressed human IBAT transporter using Cos 7 cells (Test Example 8)
Conditions: Cos 7 cells temporarily expressing human IBAT; [3H] taurocholate 8 μM, 37° C., 60 minutes
Protocol: In Vitro Assay of Compounds Which Inhibit Temporarily Expressed Human IBAT Transporter or Rat IBAT Transporter Using Cos 7 Cells […] That is, […] Cos 7 were inoculated on a 24-well cell plate. […] Measurement of radioactivity was carried out by introducing the cell lyzate in 4 ml of liquid scintillation cocktail, stirring the mixture well, and then measuring the radioactivity by a scintillation counter.
Quick reminder: number only, in nM, skip the unit.

CCCCC(CCCC)c1cc[n+](Cc2ccc(NC(=S)Nc3cccc(C4NC(CCCC)(CCCC)CS(=O)(=O)c5ccc(N(C)C)cc54)c3)cc2)cc1 (stereo not drawn): 89
CCCCCCCCCC[N+](C)(C)Cc1ccc(NC(=S)Nc2cccc(C3NC(CCCC)(CCCC)CS(=O)(=O)c4ccc(N(C)C)cc43)c2)cc1 (stereo not drawn): 88
CCCCC1(CCCC)CS(=O)(=O)c2ccc(N(C)C)cc2C(c2cccc(NC(=S)Nc3cccc(C[n+]4cccc5cc(C(C)C)ccc54)c3)c2)N1 (stereo not drawn): 46
CCCCC1(CCCC)CS(=O)(=O)c2ccc(N(C)C)cc2C(c2cccc(NC(=S)CCCCCCC[N+]34CCC(CC3)CC4)c2)N1 (stereo not drawn): 36
CCCCC1(CCCC)CS(=O)(=O)c2ccc(N(C)C)cc2C(c2cccc(NC(=S)Nc3ccc(C[n+]4cccc(CCC(=O)OC)c4)cc3)c2)N1.[Br-] (stereo not drawn): 41

Turning now to a further record.
What does the record list as IC50 for CCCCC1(CCCC)CS(=O)(=O)c2ccc(N(C)C)cc2C(c2cccc(NC(=S)Nc3cccc(C[n+]4cccc(-c5cccs5)c4)c3)c2)N1 (stereo not drawn) ?
82

----------
# maps each entry to its pIC50
Target: human IBAT (Homo sapiens)
Sequence (Q12908 1-348): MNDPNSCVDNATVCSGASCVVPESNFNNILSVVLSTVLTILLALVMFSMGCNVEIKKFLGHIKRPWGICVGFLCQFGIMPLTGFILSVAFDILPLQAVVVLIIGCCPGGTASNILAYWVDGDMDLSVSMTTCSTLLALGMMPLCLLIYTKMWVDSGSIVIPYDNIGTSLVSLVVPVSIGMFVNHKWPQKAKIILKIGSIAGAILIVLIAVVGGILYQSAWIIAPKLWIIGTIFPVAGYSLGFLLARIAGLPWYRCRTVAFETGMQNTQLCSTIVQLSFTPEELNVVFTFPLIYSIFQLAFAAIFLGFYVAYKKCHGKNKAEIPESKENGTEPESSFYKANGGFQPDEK
Assay: In vitro assay of temporarily expressed human IBAT transporter using Cos 7 cells (Test Example 8)
Settings: Cos 7 cells temporarily expressing human IBAT; [3H] taurocholate 8 μM, 37° C., 60 minutes
Scale: pIC50 equals -log10([C]), with [C] in mol/L.

Example entries begin here.
CCCCC1(CCCC)CS(=O)(=O)c2ccc(N(C)C)cc2C(c2cccc(NC(=S)Nc3ccc(C[N+](C)(C)CC(C)O)cc3)c2)N1 (stereo not drawn) [Example 3454]: 7.17
CCCCC1(CCCC)CS(=O)(=O)c2ccc(N(C)C)cc2C(c2cccc(NC(=S)Nc3ccc(C[n+]4cccc(-c5cccs5)c4)cc3)c2)N1 (stereo not drawn) [Example 3726]: 7.14
CCCCC1(CCCC)CS(=O)(=O)c2ccc(N(C)C)cc2C(c2cccc(NC(=S)Nc3ccc(C[N+]4(Cc5ccccc5)CCC(O)CC4)cc3)c2)N1.[Br-] (stereo not drawn) [Example 3605]: 7.41
CCCCC1(CCCC)CS(=O)(=O)c2ccc(N(C)C)cc2C(c2cccc(NC(=S)Nc3ccc(C[n+]4cccc(-c5ccccc5)c4)cc3)c2)N1 (stereo not drawn) [Example 3724]: 7.16

Give its pIC50 value. Item: CCCCC1(CCCC)CS(=O)(=O)c2ccc(N(C)C)cc2C(c2cccc(NC(=S)Nc3cccc(C[N+]4(Cc5ccccc5)CCC(CO)CC4)c3)c2)N1 (stereo not drawn) [Example 4424]
7.04

// pIC50 lookup, key: CCCCC1(CCCC)CS(=O)(=O)c2ccc(N(C)C)cc2C(c2cccc(NC(=S)Nc3cccc(C[N+]45CCC(CC4)CC5)c3)c2)N1 (stereo not drawn) [Example 4512]
7.20

Reported pIC50, molecule CCCCC1(CCCC)CS(=O)(=O)c2ccc(N(C)C)cc2C(c2cccc(NC(=S)Nc3ccc(C[n+]4ccc(C(N)=O)cc4)cc3)c2)N1 (stereo not drawn) [Example 3754] : ____
7.04

For the molecule shown here, CCCCC1(CCCC)CS(=O)(=O)c2ccc(N(C)C)cc2C(c2cccc(NC(=S)Nc3cccc(C[N+]45CCC(c6ccccc6)(CC4)CC5)c3)c2)N1 (stereo not drawn) [Example 4513] , give the reported pIC50.
7.04

Query (molecule): CCCCC1(CCCC)CS(=O)(=O)c2ccc(N(C)C)cc2C(c2cccc(NC(=S)Nc3ccc(C[N+]4(Cc5ccccc5)CCCC(O)C4)cc3)c2)N1 (stereo not drawn) [Example 3604] ; field requested: pIC50
7.35

# lookup: pIC50 of C#CC[N+](C)(Cc1ccccc1)Cc1ccc(NC(=S)Nc2cccc(C3NC(CCCC)(CCCC)CS(=O)(=O)c4ccc(N(C)C)cc43)c2)cc1 (stereo not drawn) [Example 3448]
7.43

Using the record for C=CC[N+]1(Cc2cccc(NC(=S)Nc3cccc(C4NC(CCCC)(CCCC)CS(=O)(=O)c5ccc(N(C)C)cc54)c3)c2)CCCCC1 (stereo not drawn) [Example 4408] , report its pIC50.
7.14

----------
target: human IBAT (Homo sapiens); experiment: In vitro assay of temporarily expressed human IBAT transporter using Cos 7 cells (Test Example 8); details: Cos 7 cells temporarily expressing human IBAT; [3H] taurocholate 8 μM, 37° C., 60 minutes
parameter: pIC50
Kindly note that pIC50 refers to -log10 of the concentration in mol/L and answer with the value alone.

Previously resolved entries follow.
CCCCC1(CCCC)CS(=O)(=O)c2ccc(N(C)C)cc2C(c2cccc(NC(=S)Nc3cccc(C[N+](C)(C)CCCC)c3)c2)N1 (stereo not drawn): 7.00
CCCCC1(CCCC)CS(=O)(=O)c2ccc(N(C)C)cc2C(c2cccc(NC(=S)Nc3ccc(CC[N+](C)(C)Cc4ccccc4)cc3)c2)N1 (stereo not drawn): 7.21

Data request, read-out pIC50, for CCCCC1(CCCC)CS(=O)(=O)c2ccc(N(C)C)cc2C(c2cccc(NC(=S)Nc3cccc(C[n+]4ccc(CCC)cc4)c3)c2)N1 (stereo not drawn)
7.04

----------
target: human IBAT (Homo sapiens, UniProt Q12908); assay: In vitro assay of temporarily expressed human IBAT transporter using Cos 7 cells (Test Example 8); conditions: Cos 7 cells temporarily expressing human IBAT; [3H] taurocholate 8 μM, 37° C., 60 minutes
Listed here are compounds together with their documented IC50.
Note: unit nM is implicit; provide only the numeric part.

Consider the following illustrative entries.
CCCCC1(CCCC)CS(=O)(=O)c2ccc(N(C)C)cc2C(c2cccc(NC(=S)Nc3cccc(C[n+]4cc(C)cc(C)c4)c3)c2)N1 (stereo not shown): 87
CCCCC1(CCCC)CS(=O)(=O)c2ccc(N(C)C)cc2C(c2cccc(NC(=S)Nc3cccc(C[N+](CC)(CC)CC)c3)c2)N1 (stereo not shown): 99

Bench note: what IC50 did CCCCC1(CCCC)CS(=O)(=O)c2ccc(N(C)C)cc2C(c2cccc(NC(=S)Nc3cccc(C[N+](C)(CC)Cc4ccccc4)c3)c2)N1 (stereo not shown) show?
74

Bench note: what IC50 did CCCCC1(CCCC)CS(=O)(=O)c2ccc(N(C)C)cc2C(c2cccc(NC(=S)Nc3ccc(C[N+]45CCC(CC4)C(=O)C5)cc3)c2)N1 (stereo not shown) show?
72

----------
molecular target: human IBAT (Homo sapiens, UniProt Q12908); experiment: In vitro assay of temporarily expressed human IBAT transporter using Cos 7 cells (Test Example 8); conditions: Cos 7 cells temporarily expressing human IBAT; [3H] taurocholate 8 μM, 37° C., 60 minutes
// boundary case: IC50 equal to 70 nM maps to 0.0; strictly smaller maps to 1.0

Worked set:
CCCCC1(CCCC)CS(=O)(=O)c2ccc(N(C)C)cc2C(c2cccc(NC(=S)CCCCC[N+](C)(C)Cc3ccccc3)c2)N1 (stereo not shown) [Example 3835]: 1.0
CCCCC1(CCCC)CS(=O)(=O)c2ccc(N(C)C)cc2C(c2cccc(NC(=S)Nc3cccc(C[N+](CC)(CC)CCCC)c3)c2)N1 (stereo not shown) [Example 4233]: 1.0
CCCCC1(CCCC)CS(=O)(=O)c2ccc(N(C)C)cc2C(c2cccc(NC(=S)Nc3ccc(C[n+]4cc(C)cc(C)c4)cc3)c2)N1 (stereo not shown) [Example 3729]: 0.0
CCCCC1(CCCC)CS(=O)(=O)c2ccc(N(C)C)cc2C(c2cccc(NC(=S)Nc3cccc(C[n+]4ccc(OC)cc4)c3)c2)N1 (stereo not shown) [Example 4551]: 0.0

Take the molecule CCCCC1(CCCC)CS(=O)(=O)c2ccc(N(C)C)cc2C(c2cccc(NC(=S)Nc3ccc(C[N+]45CCC(CC4)CC5)cc3)c2)N1.[Br-] (stereo not shown) [Example 3695] and say whether its IC50 is less than 70 nM.
1.0

API: query returns whether the molecule falls strictly under 70 nM in IC50. Query: CCCCC1(CCCC)CS(=O)(=O)c2ccc(N(C)C)cc2C(c2cccc(NC(=S)Nc3ccc(C[N+](C)(C)CCCC)cc3)c2)N1.[Br-] (stereo not shown) [Example 3409]
1.0

IC50 strictly < 70 nM for this molecule? CCCCC1(CCCC)CS(=O)(=O)c2ccc(N(C)C)cc2C(c2cccc(NC(=S)Nc3ccc(C[n+]4cccc(CC)c4)cc3)c2)N1 (stereo not shown) [Example 3722]
1.0

Does the reported IC50 of CCCCC1(CCCC)CS(=O)(=O)c2ccc(N(C)C)cc2C(c2cccc(NC(=S)Nc3cccc(C[n+]4cccc5ccccc54)c3)c2)N1 (stereo not shown) [Example 4585] stay below 70 nM?
0.0

Could you please tell me whether IC50 recorded for CCCCC1(CCCC)CS(=O)(=O)c2ccc(N(C)C)cc2C(c2cccc(NC(=S)NCCCCCC[N+]34CCC(CC3)CC4)c2)N1 (stereo not shown) [Example 1810] is less than 70 nM?
0.0

Does CCCCC1(CCCC)CS(=O)(=O)c2ccc(N(C)C)cc2C(c2cccc(NC(=S)Nc3ccc(C[N+]45CCC(c6ccccc6)(CC4)CC5)cc3)c2)N1.[Br-] (stereo not shown) [Example 3696] have IC50 strictly under 70 nM?
1.0
